The molecules listed here are annotated with their IC50.
# Tested on: cell line harboring RET G810R
# experimentSummary: Inhibition of cell line harboring RET G810R
# Type: cell-based
# experimentalConditions: under similar conditions
quantityName: IC50 (µM)

[[record]]
molecule = "CO[C@]1(C(=O)N[C@@H](C)c2ccc(-n3cc(F)cn3)nc2)CC[C@H](c2nc(C)cc(Nc3cc(C)[nH]n3)n2)CC1 [pralsetinib]"
experimentalvalue = 7.32

[[record]]
molecule = "COc1ccc(CN2C3CC2CN(c2ccc(-c4cc(OCC(C)(C)O)cn5ncc(C#N)c45)cn2)C3)cn1 [Selpercatinib, reference compound]"
experimentalvalue = 2.62

[[record]]
molecule = "Cc1ccc(C(=O)Nc2ccc(CN3CCN(C)CC3)c(C(F)(F)F)c2)cc1C#Cc1cnc2cccnn12 [ponatinib]"
experimentalvalue = 0.077

[[record]]
molecule = "Cc1nc2cnc(N)c(C#Cc3cncc(C(=O)Nc4ccc(CN5CCN(C)CC5)c(C(F)(F)F)c4)c3)c2nc1C [HSL476]"
experimentalvalue = 0.018


====

# Tested on: cell lines harboring RET solvent front mutations
# experimentSummary: Inhibition of selpercatinib and pralsetinib-resistant cell lines
# Assay type: cell-based
quantityName: IC50

[[record]]
linenotation = "Cc1nc2cnc(N)c(C#Cc3cncc(C(=O)Nc4ccc(CN5CCN(C)CC5)c(C(F)(F)F)c4)c3)c2nc1C"
testedon = "cell lines harboring RET solvent front mutations"
experimentalvalue = "< 20 nM"


The origin of these recorded values is patent US20230219934A1.
